Reference source for all entries: patent US9108929B2

# System: HDAC (HeLa nuclear extract)
# experimental.protocol: HDAC fluorimetric assay (HDAC enzymatic activity)
# Type: biochemical
reported.endpoint: IC50

structure.as.smiles	IC50
C#Cc1cc(Nc2ncnc3cc(OC)c(OCCCCCCC(=O)O)cc23)ccc1O	> 10000 nM

Give IC50 for each of the items listed below.
1. C#Cc1cc(Nc2ncnc3cc(OC)c(OCCCCC(=O)O)cc23)ccc1O
2. C#Cc1cccc(Nc2ncnc3cc(OC)c(OCCCCCCC(=O)O)cc23)c1

> 10000 nM
> 10000 nM

---

# assayed.target: human EGFR (His672-Ala1210) (Homo sapiens)
# Construct: a construct expressing human EGFR (His672-Ala1210); GST (N); purchased Cell Signaling Technologies; host or cells: baculovirus expression system
# Sequence (P00533 672-1210): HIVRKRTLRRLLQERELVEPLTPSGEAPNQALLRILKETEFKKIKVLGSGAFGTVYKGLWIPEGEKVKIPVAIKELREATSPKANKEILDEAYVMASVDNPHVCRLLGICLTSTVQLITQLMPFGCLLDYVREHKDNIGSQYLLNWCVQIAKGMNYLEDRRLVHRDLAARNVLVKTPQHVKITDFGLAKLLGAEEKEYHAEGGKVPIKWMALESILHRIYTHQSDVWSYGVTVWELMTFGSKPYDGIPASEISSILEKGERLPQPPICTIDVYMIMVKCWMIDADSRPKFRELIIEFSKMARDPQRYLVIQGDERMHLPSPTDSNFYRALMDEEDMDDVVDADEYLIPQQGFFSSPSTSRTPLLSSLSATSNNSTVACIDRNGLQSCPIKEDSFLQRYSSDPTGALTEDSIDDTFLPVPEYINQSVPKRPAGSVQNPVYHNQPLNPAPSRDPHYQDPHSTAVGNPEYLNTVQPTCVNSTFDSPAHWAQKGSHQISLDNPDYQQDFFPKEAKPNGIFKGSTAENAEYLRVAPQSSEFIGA
# experimental.protocol: EGFR kinase inhibition assay (HTScan EGF Receptor Kinase Assay Kit)
# Type: biochemical
Please go through the items and note down their IC50.

Known IC50 results, listed for orientation:
structure.as.smiles	reported.value
C#Cc1cccc(Nc2ncnc3cc(OC)c(OCCCCCCC(=O)O)cc23)c1	< 100 nM
C#Cc1cccc(Nc2ncnc3cc(OC)c(OCCCCC(=O)O)cc23)c1	< 100 nM

// moving on: another record for IC50
// IC50 lookup, key: "C#Cc1cc(Nc2ncnc3cc(OC)c(OCCCCCCC(=O)O)cc23)ccc1O"
< 100 nM
